Listed here are compounds together with their documented cell viability.
- Test system: MOLM-13
- test: cell viability (% survival relative to DMSO control, bortezomib = 0%); higher = less cytotoxic
- study_conditions: 100 nM; 72 h
Where a name gives a salt, the structure may show the parent alone.
property_measured: cell viability (%)

# compound, unit_name, recorded_measurement
data = [
    ("CCN(CCO)CCCC(C)Nc1ccnc2cc(Cl)ccc12 (stereo not drawn) [Hydroxychloroquine sulfate]", "%", 91.8),
    ("C=CCN(C)CCCCCCOc1ccc(C(=O)c2ccc(Br)cc2)c(F)c1.O=C(O)/C=C/C(=O)O [Ro 48-8071 fumarate]", "%", 88.9),
    ("CN(CCCOc1ccc(Cc2ccccc2)cc1)CCC(=O)O", "%", 91.9),
]
